target: human TLR2 (Homo sapiens); construct: expressed in transfected cells; host or cells: HEK-Blue hTLR2; assay: HEK-Blue hTLR2 Dose Response (NF-κB SEAP reporter); type: cell-based; conditions: 0.49 pg/mL
OBSERVED PROPERTY: optical density (650 nm), Average
Write the number on its own, no unit after it.

Kindly indicate its recorded optical density (650 nm), Average. Item: CCCCCCCCCCCCCC[C@@H](C)C(=O)OC[C@H](CSC[C@H](N)C(=O)N[C@@H](CO)C(=O)NCCOCCOCCOCCOCCOCCOCCOCCOCCOCCOCCOCCOCCOCCOCCOCCOCCOCCOCCOCCOCCOCCOCCOCCOCCOCCOCCOCCOCCC(=O)NCC(N)=O)OC(=O)[C@H](C)CCCCCCCCCCCCCC
1.156

Quote optical density (650 nm), Average reported for CCCCCCCCCCCCCC[C@@H](C)C(=O)OCC[C@H](CSC[C@H](N)C(=O)N[C@@H](CO)C(=O)NCCOCCOCCOCCOCCOCCOCCOCCOCCOCCOCCOCCOCCOCCOCCOCCOCCOCCOCCOCCOCCOCCOCCOCCOCCOCCOCCOCCOCCC(=O)NCC(N)=O)OC(=O)[C@H](C)CCCCCCCCCCCCCC please.
1.342

Provide optical density (650 nm), Average value for the following compound: CCCCCCCCCCCCCC[C@H](C)C(=O)OCC[C@H](CSC[C@H](N)C(=O)N[C@@H](CO)C(=O)NCCOCCOCCOCCOCCOCCOCCOCCOCCOCCOCCOCCOCCOCCOCCOCCOCCOCCOCCOCCOCCOCCOCCOCCOCCOCCOCCOCCOCCC(=O)NCC(N)=O)OC(=O)[C@@H](C)CCCCCCCCCCCCCC
1.099

Report measured optical density (650 nm), Average; entry is CCCCCCCCCCCCCCC(C)C(=O)OCC[C@H](CSC[C@H](N)C(=O)N[C@@H](CO)C(=O)NCCOCCOCCOCCOCCOCCOCCOCCOCCOCCOCCOCCOCCOCCOCCOCCOCCOCCOCCOCCOCCOCCOCCOCCOCCOCCOCCOCCOCCC(=O)NCC(N)=O)OC(=O)C(C)CCCCCCCCCCCCCC (some centres unmarked)
1.860

Provide only the value of recorded optical density (650 nm), Average for CCCCCCCCCCCCCCC(C)C(=O)OC[C@H](CSC[C@H](N)C(=O)N[C@@H](CO)C(=O)NCCOCCOCCOCCOCCOCCOCCOCCOCCOCCOCCOCCOCCOCCOCCOCCOCCOCCOCCOCCOCCOCCOCCOCCOCCOCCOCCOCCOCCC(=O)NCC(N)=O)OC(=O)C(C)CCCCCCCCCCCCCC (some centres unmarked)
1.479

====

molecular target: human TLR2 (Homo sapiens, UniProt O60603); construct: expressed in transfected cells; host or cells: HEK-Blue hTLR2; test: HEK-Blue hTLR2 Dose Response (NF-κB SEAP reporter); assay type: cell-based; conditions: 125 pg/mL
Sequence (O60603 21-784): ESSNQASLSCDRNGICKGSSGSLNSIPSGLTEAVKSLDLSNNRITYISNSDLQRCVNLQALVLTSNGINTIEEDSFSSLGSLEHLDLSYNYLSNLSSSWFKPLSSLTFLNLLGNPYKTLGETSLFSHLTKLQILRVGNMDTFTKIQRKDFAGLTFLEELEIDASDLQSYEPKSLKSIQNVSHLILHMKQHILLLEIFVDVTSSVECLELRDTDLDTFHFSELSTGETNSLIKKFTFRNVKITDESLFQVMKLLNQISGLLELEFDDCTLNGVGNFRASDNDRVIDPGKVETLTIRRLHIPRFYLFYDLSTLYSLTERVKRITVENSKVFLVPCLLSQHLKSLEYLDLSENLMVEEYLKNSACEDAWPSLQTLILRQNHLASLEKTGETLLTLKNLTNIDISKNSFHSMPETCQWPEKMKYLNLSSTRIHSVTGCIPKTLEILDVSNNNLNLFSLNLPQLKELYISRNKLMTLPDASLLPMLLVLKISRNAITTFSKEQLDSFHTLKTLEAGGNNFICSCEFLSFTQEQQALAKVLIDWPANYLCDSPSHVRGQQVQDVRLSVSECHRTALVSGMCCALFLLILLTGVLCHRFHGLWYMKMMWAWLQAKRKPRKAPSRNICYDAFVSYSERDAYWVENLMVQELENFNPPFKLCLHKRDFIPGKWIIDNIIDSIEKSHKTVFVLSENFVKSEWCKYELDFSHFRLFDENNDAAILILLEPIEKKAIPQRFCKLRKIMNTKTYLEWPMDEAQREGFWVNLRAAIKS
Sequence (Q9Y2C9 32-796 partner): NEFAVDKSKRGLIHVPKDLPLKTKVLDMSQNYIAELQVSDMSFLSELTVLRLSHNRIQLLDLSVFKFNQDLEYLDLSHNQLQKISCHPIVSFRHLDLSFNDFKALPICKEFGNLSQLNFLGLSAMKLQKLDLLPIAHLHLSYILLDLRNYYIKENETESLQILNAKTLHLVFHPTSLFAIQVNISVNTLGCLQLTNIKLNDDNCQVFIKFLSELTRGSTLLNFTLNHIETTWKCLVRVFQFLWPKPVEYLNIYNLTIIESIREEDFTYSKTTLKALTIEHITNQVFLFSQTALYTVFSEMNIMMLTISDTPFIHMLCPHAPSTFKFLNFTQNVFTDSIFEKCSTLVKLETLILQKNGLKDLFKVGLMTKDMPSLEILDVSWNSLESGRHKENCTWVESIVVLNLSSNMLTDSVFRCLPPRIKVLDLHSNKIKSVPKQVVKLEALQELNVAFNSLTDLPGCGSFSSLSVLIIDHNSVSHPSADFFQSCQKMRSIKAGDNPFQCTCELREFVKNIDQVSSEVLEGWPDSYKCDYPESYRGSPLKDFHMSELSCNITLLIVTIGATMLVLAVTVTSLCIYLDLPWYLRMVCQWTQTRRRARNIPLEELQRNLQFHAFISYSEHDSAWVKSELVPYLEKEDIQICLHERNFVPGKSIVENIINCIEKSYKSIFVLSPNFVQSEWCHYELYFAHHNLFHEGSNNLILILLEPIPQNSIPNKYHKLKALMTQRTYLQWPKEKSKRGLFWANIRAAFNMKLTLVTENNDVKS
Field: optical density (650 nm), Average. Provide a value for each of the compounds that follow.
Reply with the value as a number alone.

Report value only: optical density (650 nm), Average, human TLR2 (Homo sapiens, UniProt O60603), CCCCCCCCCCCCCC[C@@H](C)C(=O)OC[C@H](CSC[C@H](N)C(=O)N[C@@H](CO)C(=O)NCCOCCOCCOCCOCCOCCOCCOCCOCCOCCOCCOCCOCCOCCOCCOCCOCCOCCOCCOCCOCCOCCOCCOCCOCCOCCOCCOCCOCCC(=O)NCC(N)=O)OC(=O)[C@H](C)CCCCCCCCCCCCCC
2.470

Retrieve optical density (650 nm), Average on human TLR2 (Homo sapiens, UniProt O60603); query CCCCCCCCCCCCCCC(C)C(=O)OC[C@H](CSC[C@H](N)C(=O)N[C@@H](CO)C(=O)NCCOCCOCCOCCOCCOCCOCCOCCOCCOCCOCCOCCOCCOCCOCCOCCOCCOCCOCCOCCOCCOCCOCCOCCOCCOCCOCCOCCOCCC(=O)NCC(N)=O)OC(=O)C(C)CCCCCCCCCCCCCC (stereo partly drawn)
2.521

Specify optical density (650 nm), Average for CCCCCCCCCCCCCC[C@@H](C)C(=O)OCC[C@H](CSC[C@H](N)C(=O)N[C@@H](CO)C(=O)NCCOCCOCCOCCOCCOCCOCCOCCOCCOCCOCCOCCOCCOCCOCCOCCOCCOCCOCCOCCOCCOCCOCCOCCOCCOCCOCCOCCOCCC(=O)NCC(N)=O)OC(=O)[C@H](C)CCCCCCCCCCCCCC , system human TLR2 (Homo sapiens, UniProt O60603).
2.814

System human TLR2 (Homo sapiens, UniProt O60603). Read-out optical density (650 nm), Average. Item CCCCCCCCCCCCCCC(C)C(=O)OCC[C@H](CSC[C@H](N)C(=O)N[C@@H](CO)C(=O)NCCOCCOCCOCCOCCOCCOCCOCCOCCOCCOCCOCCOCCOCCOCCOCCOCCOCCOCCOCCOCCOCCOCCOCCOCCOCCOCCOCCOCCC(=O)NCC(N)=O)OC(=O)C(C)CCCCCCCCCCCCCC (stereo partly drawn) . Report value.
2.568

Consider the compound CCCCCCCCCCCCCC[C@H](C)C(=O)OC[C@H](CSC[C@H](N)C(=O)N[C@@H](CO)C(=O)NCCOCCOCCOCCOCCOCCOCCOCCOCCOCCOCCOCCOCCOCCOCCOCCOCCOCCOCCOCCOCCOCCOCCOCCOCCOCCOCCOCCOCCC(=O)NCC(N)=O)OC(=O)[C@@H](C)CCCCCCCCCCCCCC tested on human TLR2 (Homo sapiens, UniProt O60603); state its optical density (650 nm), Average.
2.735

Supply optical density (650 nm), Average measured with human TLR2 (Homo sapiens, UniProt O60603) for CCCCCCCCCCCCCC[C@H](C)C(=O)OCC[C@H](CSC[C@H](N)C(=O)N[C@@H](CO)C(=O)NCCOCCOCCOCCOCCOCCOCCOCCOCCOCCOCCOCCOCCOCCOCCOCCOCCOCCOCCOCCOCCOCCOCCOCCOCCOCCOCCOCCOCCC(=O)NCC(N)=O)OC(=O)[C@@H](C)CCCCCCCCCCCCCC .
2.540

Taken from patent US20250302972A1.
